- system-name: Aryl hydrocarbon receptor (Mus musculus, UniProt P30561)
- Sequence (P30561 whole entry): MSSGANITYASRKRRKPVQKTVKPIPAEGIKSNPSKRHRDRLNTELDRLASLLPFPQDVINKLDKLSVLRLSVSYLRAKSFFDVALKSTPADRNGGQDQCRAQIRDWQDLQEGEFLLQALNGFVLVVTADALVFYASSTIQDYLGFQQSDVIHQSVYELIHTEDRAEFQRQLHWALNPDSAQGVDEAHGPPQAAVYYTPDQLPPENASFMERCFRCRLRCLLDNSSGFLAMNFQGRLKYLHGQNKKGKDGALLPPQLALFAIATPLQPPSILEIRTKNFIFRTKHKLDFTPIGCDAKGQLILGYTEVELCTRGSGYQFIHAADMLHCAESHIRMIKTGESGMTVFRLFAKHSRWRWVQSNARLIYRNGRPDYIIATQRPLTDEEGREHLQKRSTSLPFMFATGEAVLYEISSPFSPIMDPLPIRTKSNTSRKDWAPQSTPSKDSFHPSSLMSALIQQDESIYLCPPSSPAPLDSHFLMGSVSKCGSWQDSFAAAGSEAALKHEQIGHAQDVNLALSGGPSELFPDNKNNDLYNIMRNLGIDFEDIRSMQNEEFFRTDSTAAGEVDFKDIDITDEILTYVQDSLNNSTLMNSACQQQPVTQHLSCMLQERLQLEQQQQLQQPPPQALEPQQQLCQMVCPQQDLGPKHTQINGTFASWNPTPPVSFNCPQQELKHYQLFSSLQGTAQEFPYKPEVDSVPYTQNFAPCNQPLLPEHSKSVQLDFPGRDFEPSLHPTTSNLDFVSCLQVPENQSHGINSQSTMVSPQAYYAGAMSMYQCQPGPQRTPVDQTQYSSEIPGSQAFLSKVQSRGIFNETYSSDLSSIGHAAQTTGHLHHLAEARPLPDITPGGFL
Exercise: for every item that follows, state its recorded Kd.
Give bare numbers, in pM.

Completed entries (count: 3):
Fill in the blank: the reported Kd of [N-]=[N+]=Nc1c(I)c(Cl)cc2c1Oc1cc(Cl)c(Cl)cc1O2 is ____.
2100

Consider the compound shown here: [N-]=[N+]=Nc1cc2c(cc1Cl)Oc1cc(Cl)c(Cl)cc1O2 What is its recorded Kd?
490

What value of Kd has been recorded for this entry: [N-]=[N+]=Nc1cc(Cl)cc2c1Oc1cc(Cl)c(Cl)cc1O2
440

Moving on to the next compound.
For [N-]=[N+]=Nc1cc2c(cc1I)Oc1cc(Br)c(Br)cc1O2 , what is its reported Kd?
760

Data credit: BindingDB's records for PubMed 3009454
